- Test Target: Polyunsaturated fatty acid 5-lipoxygenase (Homo sapiens)
- Sequence (P09917 whole entry): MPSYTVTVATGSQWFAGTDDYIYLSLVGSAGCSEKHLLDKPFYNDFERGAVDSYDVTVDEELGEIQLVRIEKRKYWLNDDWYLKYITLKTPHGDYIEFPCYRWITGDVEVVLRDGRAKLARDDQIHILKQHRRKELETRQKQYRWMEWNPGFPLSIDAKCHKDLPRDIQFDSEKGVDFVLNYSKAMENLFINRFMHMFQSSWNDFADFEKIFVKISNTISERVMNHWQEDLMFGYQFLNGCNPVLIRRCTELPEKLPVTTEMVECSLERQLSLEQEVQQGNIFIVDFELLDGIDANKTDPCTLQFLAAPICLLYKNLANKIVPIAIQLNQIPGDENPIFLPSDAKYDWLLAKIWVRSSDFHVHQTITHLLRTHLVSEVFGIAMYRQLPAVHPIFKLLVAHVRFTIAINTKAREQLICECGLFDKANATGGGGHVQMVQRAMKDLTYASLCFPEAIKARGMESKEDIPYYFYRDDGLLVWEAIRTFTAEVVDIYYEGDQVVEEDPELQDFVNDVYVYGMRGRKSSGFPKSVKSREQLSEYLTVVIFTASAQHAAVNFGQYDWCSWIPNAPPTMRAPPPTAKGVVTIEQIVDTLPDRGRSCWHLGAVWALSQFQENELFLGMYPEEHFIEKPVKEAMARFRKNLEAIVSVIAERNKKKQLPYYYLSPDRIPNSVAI
- Assay Remarks: Inhibition of human 5-LOX expressed in Escherichia coli BL21 using arachidonic acid as substrate preincubated for 15 mins followed by substrate addition by HPLC analysis
# pIC50 per entry
A value of pIC50 is the negative decimal logarithm of a concentration given in moles per litre.

Compound | Observation Type | Observed Result
COc1cc(/C=C/c2ccc(OC)c(O)c2)cc(OC)c1 | pIC50 | 5.26
COc1cc(/C=C/c2ccc(O)c(OC)c2)cc(OC)c1 | pIC50 | 6.11
COc1cc(/C=C/c2ccc(O)c(O)c2)cc(OC)c1 | pIC50 | 6.49
COc1ccc(/C=C/c2cc(OC)cc(OC)c2)cc1 [TRISMETHOXYRESVERATROL] | pIC50 | 5.44
Oc1cc(O)cc(/C=C/c2ccc(O)c(O)c2)c1 [PICEATANNOL] | pIC50 | 5.96

# context switch: different compound, same pIC50
Enquiry: Would you kindly share the measured pIC50 for COc1cc(/C=C/c2ccc(O)cc2)cc(OC)c1 [PTEROSTILBENE] ?
Return: 5.41
